# System: rodent lifetime carcinogenesis bioassay, tumor incidence TD50
# test-summary: carcinogenic potency in animals, long-term in vivo studies, CPDB compilation (AID 1745844)
# experimental-context: rat; strain Fischer 344; females; in feed; site: liver; lesion: hepatocellular adenoma + hepatocellular carcinoma + neoplastic nodule; dosed 78 weeks; study length 108 weeks
value-type: TD50

The molecule identified as "Cc1ccc([N+](=O)[O-])cc1N" registered its TD50 at 43 mg/kg/day

====

# System: rodent lifetime carcinogenesis bioassay, tumor incidence TD50
# test-summary: carcinogenic potency in animals, long-term in vivo studies, CPDB compilation (AID 1745844)
# experimental-context: rat; strain Fischer 344; males; by gavage; site: lung; lesion: alveolar adenoma; dosed 30 weeks; study length 65 weeks
value-type: TD50

The molecule identified as "CCCCCCCCCCCN(C)N=O" registered its TD50 at 2.41 mg/kg/day
